Value source: patent US8653056B2

- Test description: Bioavailability and pharmacokinetic profile at oral administration to laboratory mice
- Format: in vivo, outbred mice CD-1
- Settings: intragastric single dose 200 μl, soluble cyclodextrin formulation
Metric name: oral availability

>>> measurement("CCOC(=O)[C@@]12CC[C@]3(C)[C@H](CC[C@@H]4[C@@]5(C)CC[C@H](O[C@@H]6O[C@H](CO)[C@@H](O)[C@H](O)[C@H]6O)C(C)(C)[C@@H]5CC[C@]43C)C1=C(C(C)C)C(=O)C2 [4i]")
"prove oral availability"
>>> measurement("C=C(C)[C@@H]1CC[C@]2(C(=O)OC)CC[C@]3(C)[C@H](CC[C@@H]4[C@@]5(C)CC[C@H](OC(=O)CCCC(=O)O)C(C)(C)[C@@H]5CC[C@]43C)[C@@H]12 [2i]")
"prove oral availability"
>>> measurement("CC(C)C1=C2[C@H]3CC[C@@H]4[C@@]5(C)CC[C@H](OC(=O)CC(C)(C)C(=O)O)C(C)(C)[C@@H]5CC[C@@]4(C)[C@]3(C)CC[C@@]2(C(=O)O)CC1=O [4t]")
"prove oral availability"

###

- Test description: Concentration of dissolved triterpenoid in the aqueous cyclodextrin solution (HPLC-ESI MS)
- Type: physicochemical
- Settings: solution method A: water, saturated sodium hydrogencarbonate solution, ethanol, 2-hydroxypropyl-γ-cyclodextrin, 50° C.
Each record here notes measured Conc. of dissolved substance.
Metric name: Conc. of dissolved substance (µg/mL)

>>> measurement("C=C(C)[C@@H]1CC[C@]2(C(=O)OC)CC[C@]3(C)[C@H](CC[C@@H]4[C@@]5(C)CC[C@H](OC(=O)CCCC(=O)O)C(C)(C)[C@@H]5CC[C@]43C)[C@@H]12")
51000
>>> measurement("C=C(C)[C@@H]1CC[C@]2(C(=O)OCC)CC[C@]3(C)[C@H](CC[C@@H]4[C@@]5(C)CC[C@H](OC(=O)c6ccccc6C(=O)O)C(C)(C)[C@@H]5CC[C@]43C)[C@@H]12")
41000
>>> measurement("CCOC(=O)[C@@]12CC[C@]3(C)[C@H](CC[C@@H]4[C@@]5(C)CC[C@H](OC(=O)CC(C)(C)C(=O)O)C(C)(C)[C@@H]5CC[C@]43C)C1=C(C(C)C)C(=O)C2")
44000
>>> measurement("C=C(C)C1CCC2(C(=O)OC)CCC3(C)C(CCC4C5(C)CCC(OC(=O)C6CC=CCC6C(=O)O)C(C)(C)C5CCC43C)C12 (mixture of isomers)")
43000
>>> measurement("CCOC(=O)[C@@]12CC[C@]3(C)[C@H](CC[C@@H]4[C@@]5(C)CC[C@H](OC(=O)CCC(=O)O)C(C)(C)[C@@H]5CC[C@]43C)C1=C(C(C)C)C(=O)C2")
53000
>>> measurement("CC1(C)C(OC2OC(CO)C(O)C(O)C2O)CCC2(C)C1CCC1(C)C2CCC2C(=O)C(COC3OC(CO)C(O)C(O)C3O)(C(=O)O)CCC21C (centres unmarked)")
72000
>>> measurement("CC(=O)O[C@H]1CC[C@]2(C)[C@H]3CC[C@@H]4C5=C(C(C)C)C(=O)C[C@]5(C(=O)OCC(=O)O)CC[C@@]4(C)[C@]3(C)CC[C@H]2C1(C)C")
59000
>>> measurement("C=C(C)[C@@H]1CC[C@]2(C(=O)O)CC[C@]3(C)[C@H](CC[C@@H]4[C@@]5(C)CC[C@H](OC(=O)CCC(=O)O)C(C)(C)[C@@H]5CC[C@]43C)[C@@H]12")
51000
>>> measurement("CC1(C)C(OC(=O)CCC(=O)O)CCC2(C)C1CCC1(C)C2CCC2C(=O)C(COC(=O)CCC(=O)O)(C(=O)O)CCC21C (centres unmarked)")
73000
>>> measurement("C=C(C)[C@@H]1CC[C@]2(COC(=O)c3ccccc3C(=O)O)CC[C@]3(C)[C@H](CC[C@@H]4[C@@]5(C)CC[C@H](OC(=O)c6ccccc6C(=O)O)C(C)(C)[C@@H]5CC[C@]43C)[C@@H]12 [1b, betulin dihemiphtalate]")
39000
>>> measurement("C=C(C=O)[C@@H]1CC[C@]2(C(=O)OCC)CC[C@]3(C)[C@H](CC[C@@H]4[C@@]5(C)CC[C@H](OC(=O)c6ccccc6C(=O)O)C(C)(C)[C@@H]5CC[C@]43C)[C@@H]12 [hemiphtalate 3b]")
40000
